Test: growth suppression of beta-catenin knockout HCT116, pilot screen, human colon tumor cells (AID 823);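 further: 0% = wells killed by 20 µM Hyamine and 100% = untreated DMSO cell wells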
Settings: CellTiter-Glo, 60 h, at 10 µM, active compounds read low
Results filed as inconclusive are left out.
measured attribute: viability (%)
Give bare numbers, in %.

// below: answered molecules
molecule=COc1ccccc1C(=O)NCc1ccc2c(c1)OCO2 measured_attribute=viability readout_number=107
molecule="CCC(C)NC(=O)c1cc(-c2ccccc2O)on1 (stereo unspecified)" measured_attribute=viability readout_number=94
molecule=CCc1nc2oc(C(=O)c3ccccc3)c(N)c2c2c1COC(C)(C)C2 measured_attribute=viability readout_number=81.6
molecule=Cc1cc2oc(C(=O)Nc3cccnc3)c(C)c2cc1C measured_attribute=viability readout_number=90.1
molecule=O=C(Nc1nc(-c2cc3ccccc3oc2=O)cs1)c1ccco1 measured_attribute=viability readout_number=102
molecule=COc1ccc(N(CC(=O)NCc2cccs2)S(=O)(=O)c2cccnc2)cc1 measured_attribute=viability readout_number=107
molecule=CC(C)Cc1nnc(NC(=O)CCN2C(=O)c3ccccc3C2=O)s1 measured_attribute=viability readout_number=106
molecule=Cc1ccc(S(=O)(=O)Cc2ccc(C(=O)N3CCCCCC3)o2)cc1 measured_attribute=viability readout_number=98.8
molecule=Cc1ccc(OCCCN(C)C)c(Br)c1 measured_attribute=viability readout_number=89.1
molecule=CCOC(=O)CNC(=O)CSc1nc2sc(C)c(C)c2c(=O)n1C measured_attribute=viability readout_number=98.4

Batch lookup, viability per entry.
1. CC(=O)N1CCC(N(CCN2CCOCC2)C(=O)Nc2ccc(Cl)c(Cl)c2)CC1
2. O=C1C(C=NCc2cccnc2)=C(O)c2ccccc21
3. O=C(CCn1c(=O)oc2ccccc21)NCCCN1CCCC1=O
4. CCOC(=O)N1CCN(c2ncnc3nc[nH]c23)CC1
5. Cn1c(NC(=O)c2ccc(C(C)(C)C)cc2)cc(=O)n(C)c1=O
6. CCOc1ccccc1C(=O)Nc1nnc(C(C)C)s1
7. COc1ccc(-n2c3c(cc(C(=O)Nc4ccc5c(c4)C(=O)NC5=O)c2=O)C(=O)CCC3)cc1
8. Cc1sc(NC(=O)c2cccs2)c(C(N)=O)c1C

A.
[97, 94.1, 107, 109, 91.1, 98.1, 102, 80.8]

// for each molecule below, give its viability
1. COC(=O)C1=COC(C)C2CN3CCc4c([nH]c5ccccc45)C3CC12 (stereo unspecified)
2. Cc1c(NC(=O)C2CCN(S(=O)(=O)c3ccccc3)CC2)c(=O)n(-c2ccccc2)n1C
3. N=c1n(CCO)c2ccccc2n1CCOc1ccc(Cl)cc1Cl
4. COc1ccc(S(=O)(=O)NCc2ccccc2Cl)cc1OC
5. COc1ccc(C(=O)c2coc3ccc(O)c(CN4CCOCC4)c23)cc1
6. CN(C)CCNC(=O)c1cc2c(=O)n(C)c3ccccc3c2n1C
7. CCCc1nnc(NC(=O)CC(=O)OCC)s1

A.
1. 77.4
2. 96.5
3. 1.5
4. 102
5. 77.2
6. 52.9
7. 97

Need viability for each of these molecules.
1. COc1ccc(Cl)cc1N(CC(=O)N1CCC(C)CC1)S(C)(=O)=O
2. CC(C)c1cc(N2CCN(C(=O)c3ccco3)CC2)n2c(nc3ccccc32)c1C#N
3. CCC(Sc1nc(C)cc(=O)[nH]1)C(=O)Nc1sc2c(c1C#N)CCCC2 (stereo unspecified)
4. COc1ccc(N2CSC3=C(C#N)C(c4cc(OC)ccc4OC)CC(=O)N3C2)c(OC)c1 (stereo unspecified)
5. COc1ccc(C2CC(=O)N3CN(c4ccc(C)c(Cl)c4)CSC3=C2C#N)cc1OC (stereo unspecified)
6. Cc1c(C(=O)NCc2cccnc2)oc2ccc(S(=O)(=O)N3CC(C)CC(C)C3)cc12 (stereo unspecified)
7. CC(C)N(Cc1nc(-c2ccccc2)no1)C(=O)Cc1ccccc1
8. CCC(=O)NCc1nc2ccccc2n1Cc1ccccc1F

A.
1: 96.6; 2: 94.1; 3: 92.9; 4: 80.5; 5: 85.7; 6: 93; 7: 87.1; 8: 99.1

Would you mind giving viability for every molecule in the list below?
1. S=c1sc2c(N3CCOCC3)ncnc2n1-c1ccccc1
2. COC(=O)c1sccc1NC(=O)c1ccc(Br)o1
3. COc1ccc(C2CC3CC(c4ccccc4)N2O3)cc1 (stereo unspecified)
4. O=C(Nc1nccs1)c1ccc(S(=O)(=O)N2CCCCC2)cc1

A.
[102, 78.5, 89.3, 94]

These entries and their values trace back to PubChem BioAssay.
